Source listed as PubChem BioAssay AID1963852.

test system: 282377-053-R-J1-PDC complex spheroid viability; assay: Anticancer human tumor 282377-053-R-J1-PDC patient-derived colon adenocarcinoma cell line growth inhibition [POLQ]; conditions: second compound 10 µM; first compound 0.1 µM; hits give low values;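 also: spheroids exposed to compounds for seven days; 100% = DMSO vehicle control viability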
measured_attribute: viability, T/C (%)

{"compound": "CC1COCCN1c1cc(C2(O)CC3CCC(C2)O3)c2cnn(-c3ccn[nH]3)c2n1 (stereo unspecified) + COC1C(OC(N)=O)C(O)C(Oc2ccc3c(O)c(NC(=O)c4ccc(O)c(CC=C(C)C)c4)c(=O)oc3c2C)OC1(C)C", "measured_attribute": "viability, T/C", "endpoint_value": 73.7}
{"compound": "Nc1ccn(C2OC(CO)C(O)C2(F)F)c(=O)n1 (stereo unspecified) + Nc1ccc(C#CCN(C(=O)Cc2ncc(C(F)(F)F)cc2C(F)(F)F)c2ccc(F)cc2)nn1", "measured_attribute": "viability, T/C", "endpoint_value": 120}
{"compound": "CCc1cc2c(N3CCc4c(cc(Cn5ccnc5)cc4-c4cn(C)nc4C(F)(F)F)C3=O)ccnc2c(OC)n1 + COC1C(OC(N)=O)C(O)C(Oc2ccc3c(O)c(NC(=O)c4ccc(O)c(CC=C(C)C)c4)c(=O)oc3c2C)OC1(C)C", "measured_attribute": "viability, T/C", "endpoint_value": 127}
{"compound": "CC1COCCN1c1cc(C2(O)CC3CCC(C2)O3)c2cnn(-c3ccn[nH]3)c2n1 (stereo unspecified) + Nc1ccc(C#CCN(C(=O)Cc2ncc(C(F)(F)F)cc2C(F)(F)F)c2ccc(F)cc2)nn1", "measured_attribute": "viability, T/C", "endpoint_value": 77.2}
{"compound": "COc1cc2cc(C(=O)CCC(=O)O)sc2cc1OC + Nc1ccc(C#CCN(C(=O)Cc2ncc(C(F)(F)F)cc2C(F)(F)F)c2ccc(F)cc2)nn1", "measured_attribute": "viability, T/C", "endpoint_value": 116}
{"compound": "CCc1cc2c(N3CCc4c(cc(Cn5ccnc5)cc4-c4cn(C)nc4C(F)(F)F)C3=O)ccnc2c(OC)n1 + Cc1cccc(N(C)C(=O)C2C(O)CCN2c2nc(C)cc(C(F)(F)F)c2C#N)c1", "measured_attribute": "viability, T/C", "endpoint_value": 95.6}
{"compound": "CC(C)n1c(=O)n(C)c2cnc3cc(F)c(-c4ccc(OCCCN5CCCCC5)nc4)cc3c21 + Cc1cccc(N(C)C(=O)C2C(O)CCN2c2nc(C)cc(C(F)(F)F)c2C#N)c1", "measured_attribute": "viability, T/C", "endpoint_value": 87.3}
{"compound": "O=c1[nH]cc(F)c(=O)[nH]1 + Cc1cccc(N(C)C(=O)C2C(O)CCN2c2nc(C)cc(C(F)(F)F)c2C#N)c1", "measured_attribute": "viability, T/C", "endpoint_value": 109}
{"compound": "COc1ccc([C@@H](O)c2cc(-c3ncnc4cc(N5CCOCC5)ccc34)c(F)cc2Cl)nn1 + Nc1ccc(C#CCN(C(=O)Cc2ncc(C(F)(F)F)cc2C(F)(F)F)c2ccc(F)cc2)nn1", "measured_attribute": "viability, T/C", "endpoint_value": 111}
{"compound": "C=CCn1c(=O)c2cnc(Nc3ccc(N4CCN(C)CC4)cc3)nc2n1-c1cccc(C(C)(C)O)n1 + COC1C(OC(N)=O)C(O)C(Oc2ccc3c(O)c(NC(=O)c4ccc(O)c(CC=C(C)C)c4)c(=O)oc3c2C)OC1(C)C", "measured_attribute": "viability, T/C", "endpoint_value": 102}
{"compound": "O=C(Nc1ccc(O)c(NS(=O)(=O)c2ccc(F)cc2)c1)c1ccc(-c2ccccc2)cc1 + Nc1ccc(C#CCN(C(=O)Cc2ncc(C(F)(F)F)cc2C(F)(F)F)c2ccc(F)cc2)nn1", "measured_attribute": "viability, T/C", "endpoint_value": 108}
